Provenance of the data: the supplement of paper PMC12783771

B1: library; a variant is named by its letters at X, in order (parent)
chain: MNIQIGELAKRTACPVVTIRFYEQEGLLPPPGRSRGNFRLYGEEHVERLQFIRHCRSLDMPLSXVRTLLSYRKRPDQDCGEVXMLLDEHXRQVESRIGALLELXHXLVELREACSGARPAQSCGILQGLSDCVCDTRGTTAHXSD

Variants of: B1
ASSAY_METHOD_TEXT: sfGFP reporter fluorescence (15 h) (µM FITC); higher = higher leak
ASSAY_CONTEXT: library round: Round 3b; ligand: none
Response field class: enum, chosen by comparing sfGFP reporter fluorescence against low: < 0.05; moderate: ≥ 0.05 and < 0.06; high: ≥ 0.06

MUT	CLASS_NAME
KIAKET	moderate
KIATAR	high
KIAVEP	high
KFIVEP	low
DIIVET	low
KNIVER	high
KFATET	low
DFAVER	low
KNAKER	high
DIAVAR	low
KNATER	moderate
KNITAT	high
DFATAR	low
KFAKAT	moderate
DNATER	low
KNATHR	moderate
KFAKHT	high
KIAKAP	moderate
DFATEP	low
